All figures here come from patent US6479435B1.

test system: field corn (Zea mays L., var. Dekalb 535, CORN); test: Post-emerge greenhouse test, crop damage rating; type: in vivo; settings: rate 250 g ai/ha, 14 days after application, scale 0-100
READOUT NAME: crop damage rating CORN
Please state the value as a number alone, without comment.

> print(dat)
                                   compound             readout.name  recorded.value
1  CCOC(=O)C(C)Oc1ccc(Oc2cc(-n3c(=O)n4n(c3=S)CCCC4)c(F)cc2Cl)c(N)c1 (stereo not drawn)  crop damage rating CORN              10
2  O=c1n(-c2cc(Oc3ncc([N+](=O)[O-])s3)c(Cl)cc2F)c(=S)n2n1CCCC2  crop damage rating CORN              10
3  Nc1cccnc1Oc1cc(-n2c(=O)n3n(c2=S)CCCC3)c(F)cc1Cl  crop damage rating CORN               0

Value lookup for crop damage rating CORN; key = CCOC(=O)C(C)Oc1ccc(Oc2cc(-n3c(=O)n4n(c3=O)CCCC4)c(F)cc2Cl)c([N+](=O)[O-])c1 (stereo not drawn)
0

What does the data say about its crop damage rating CORN? Entry: CCOC(=O)C(C)Oc1cc([N+](=O)[O-])c(Oc2cc(-n3c(=O)n4n(c3=S)CCCC4)c(F)cc2Cl)cc1Cl (stereo not drawn)
20

Please report the recorded crop damage rating CORN for `CSc1cccnc1Oc1cc(-n2c(=O)n3n(c2=S)CCCC3)c(F)cc1Cl` .
30
